# Species: Rattus norvegicus
# Experimental details: Selectivity ratio of IC50 for recombinant rat GluN2A receptor to IC50 for recombinant rat GluN2D receptor
Assay readout: Ratio IC50

Known Ratio IC50 results, listed for orientation:
> print(dat)
                                   molecule  assay.readout  measurement
1  O=C(O)CCCN1N=C(c2c(-c3ccc(Cl)cc3)c3ccccc3[nH]c2=O)CC1c1ccc(Cl)cc1 (stereo unspecified)     Ratio IC50           34
2  N#Cc1ccc(-c2c(C3=NN(C(=O)CCC(=O)O)C(c4ccc(Cl)cc4)C3)c(=O)[nH]c3ccccc23)cc1 (stereo unspecified)     Ratio IC50           22
3  O=C(O)CCC(=O)N1N=C(c2c(-c3ccccc3)c3cc(Cl)ccc3[nH]c2=O)CC1c1ccc([N+](=O)[O-])cc1 (stereo unspecified)     Ratio IC50           85
4  O=C(O)CCC(=O)N1N=C(c2c(-c3ccc(Cl)c(Cl)c3)c3ccccc3[nH]c2=O)CC1c1ccc(Cl)cc1 (stereo unspecified)     Ratio IC50            8
5  COc1cccc(-c2c(C3=NN(C(=O)CCC(=O)O)C(c4ccc(Cl)cc4)C3)c(=O)[nH]c3ccccc23)c1 (stereo unspecified)     Ratio IC50           24
6  O=C(O)CCC(=O)N1N=C(c2c(-c3ccc(Br)cc3)c3ccccc3[nH]c2=O)CC1c1ccc(F)cc1 (stereo unspecified)     Ratio IC50           12
7  O=C(O)CCC(=O)N1N=C(c2c(-c3cc(Cl)cc(Cl)c3)c3ccccc3[nH]c2=O)CC1c1ccc(Cl)cc1 (stereo unspecified)     Ratio IC50            8
8  O=C(O)CCCC(=O)N1N=C(c2c(-c3ccccc3)c3cc(Cl)ccc3[nH]c2=O)CC1c1ccc(Br)cc1 (stereo unspecified)     Ratio IC50           20

[I] O=C(O)CCC(=O)N1N=C(c2c(-c3cccc(Cl)c3)c3ccccc3[nH]c2=O)CC1c1ccc(Cl)cc1 (stereo unspecified)
[II] O=C(O)CCC(=O)N1N=C(c2c(-c3ccc(F)c(F)c3)c3ccccc3[nH]c2=O)CC1c1ccc(Cl)cc1 (stereo unspecified)
[III] O=C(O)CCCC(=O)N1N=C(c2c(-c3ccccc3)c3cc(Cl)ccc3[nH]c2=O)CC1c1ccc([N+](=O)[O-])cc1 (stereo unspecified)
[IV] O=C(O)CCC(=O)N1N=C(c2c(-c3ccc(Cl)cc3)c3ccccc3[nH]c2=O)CC1c1ccccc1 (stereo unspecified)
[in] # ascending order, key=Ratio IC50 Enter labels, ranked according to the request.
[out] IV, III, I, II
